Entries annotated with measured switch fluorescence ratio
# Tested on: ATP;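 note: ATP exposure 15 min at 22 °C before imaging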
# protocol: switch fluorescence ratio, 500 uM ATP over buffer (Cy3 cluster intensity, sum of 5 cycles each) (fold (ratio)); higher = stronger signal-on switching upon ATP binding; sequences stand for … in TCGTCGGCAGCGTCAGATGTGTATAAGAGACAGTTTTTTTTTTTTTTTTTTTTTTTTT…TC
# run-conditions: aptamer strand: ATP DNA aptamer (quencher-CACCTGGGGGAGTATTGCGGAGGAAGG + anchor), 100 nM annealed; ATP concentration: 500 uM
measurement-name: switch fluorescence ratio

- record-sequence: "TTTTGTAGTT"
  recorded-result: 1
- record-sequence: "ATGTTGTCGG"
  recorded-result: 0.987
- record-sequence: "TAGGGTATAT"
  recorded-result: 0.986
- record-sequence: "TTAGTGGCCC"
  recorded-result: 0.99
- record-sequence: "ACAATTGCGT"
  recorded-result: 1.05
- record-sequence: "GTATAATGGG"
  recorded-result: 0.973
- record-sequence: "CCAGGGCGTG"
  recorded-result: 1.02
- record-sequence: "TATCATGGTG"
  recorded-result: 1.05
- record-sequence: "AGTAAAGTGC"
  recorded-result: 1.03
- record-sequence: "GATTTTTCGT"
  recorded-result: 0.973
- record-sequence: "ATTTGATTCT"
  recorded-result: 0.984
- record-sequence: "TGTTTTTTTA"
  recorded-result: 0.979

The values you see were collected from the supplement of paper PMC10126150.
